Ref: the supplement of paper PMC10567573

Measured protein stability index, listed per entry.
experiment: protein stability index of a GFP-peptide fusion (GPS, HEK-293T) (PSI 1-6); higher = more stable; settings: treatment: DMSO; c terminus: a fixed tail appended;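 also: 24-mer peptide tiles fused after GFP, lentivirally expressed, FACS-sorted into six equal bins by GFP/DsRed ratio, decoded by Illumina sequencing, PSI is the read-weighted mean bin number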
Field format: numeric only.

Q: Query: protein stability index; subject: NSKEDAFSGTDWMLEKMDLKEFDL [ATF4]
A: 4.6

Q: Query: protein stability index; subject: QEDKALWEEEKALWVEERALLEGE [CCDC70]
A: 5.09

Q: Query: protein stability index; subject: PENTNRQLLLQFERLVVLDYIIRN [PI4K2A]
A: 2.77

Q: Query: protein stability index; subject: GPSLVPGKTPTVRAALICLTLVLV [CD207]
A: 2.28

* * *

experiment: protein stability index of a GFP-peptide fusion (GPS, HEK-293T) (PSI 1-6); higher = more stable; conditions: treatment: MLN4924 1 uM, 8 h; c terminus: a fixed tail appended
Measured protein stability index, listed per entry.

Sample records with protein stability index:
PKWGWEQLEVTCTPYLKETLNSIW [POMT2]: 2.12
ALLESSLRQAQQNMDPKAAEEEEE [CCND1]: 5.42
EKRGFTSHFVFVIEVKTKGGSKYL [NCF4]: 3.64
LASGPGKYMPHLCQDSSGEVSCQC: 4.1
VQKEHEEYMKNLLKVGGILVMPLE [PCMTD2]: 2.7
DERAMELLIDFAYTSQITVEEGNV [KLHL20]: 3.04

Q: Query: protein stability index; subject: AGGEENMTETDAFYKREMFDPAEK [CASP6]
A: 5.37

* * *

experiment: protein stability index of a GFP-peptide fusion (GPS, HEK-293T) (PSI 1-6); higher = more stable; conditions: treatment: MLN4924 1 uM, 8 h; c terminus: a fixed tail appended
Measured attribute: protein stability index
Field format: numeric only.

Sample records with protein stability index:
RHMEAVKAQLLEQAQGQLRELLDR [SOAT2]: 3.08
VFRVSSDKLALCHLELTRKLQDLI [FCHO1]: 2.03
TKFQELQLAAGRHGDDLKNTKNEI [KRT71]: 4.28
TDEEEGLIWVVGPVLAVVFIICIV [PTPRD]: 2.07
LPFRDASFGNCTYNLTILDCLQGI [CDC14A]: 2.71

Q: Query: protein stability index; subject: ESKMYATSPYSDPVVSMDLDPQPI [PTPRD]
A: 4.42

Q: Query: protein stability index; subject: QSSPSFAEKCLDFLVDMFNDEIEE [INTS4]
A: 3.18

* * *

assay: protein stability index of a GFP-peptide fusion (GPS, HEK-293T) (PSI 1-6); higher = more stable; conditions: treatment: MLN4924 1 uM, 8 h; c terminus: a fixed tail appended
Measured protein stability index, listed per entry.
Field format: numeric only.

Sample records with protein stability index:
WTRITCAEEGWSPTPKCLRLCFFP [CFHR2]: 2.6
RSKSGSEEVLCDSCIGNKQKAVKS [TRIM29]: 5.19
RAFLQTYSHEVSLTADSRKSHLIF [PCDHGA10]: 2.08
YGLRGPHKADSIQGTARTLSPVLE [TNXB]: 3.84
ESPSTLQVLPDSESLPRSEIDEKV [MAGEA10]: 5.63

Q: Query: protein stability index; subject: GLLSKTAGFSPDCIMDDAINILQN [INTS4]
A: 2.89

Q: Query: protein stability index; subject: PGDFDRNVPRICGVCGDRATGFHF [VDR]
A: 2.64

Q: Query: protein stability index; subject: HQLGFIHRDIKPDNLLLDAKGHVK [STK38L]
A: 4.12
